- target_of_assay: T1, human CTLA-4.ECD-6×His (human, UniProt P16410 36-161)
- T1 construct: extracellular domain; also called WBP316.hCTLA-4.ECD-6×His; hCTLA4-His (WT)
- T1 sequence: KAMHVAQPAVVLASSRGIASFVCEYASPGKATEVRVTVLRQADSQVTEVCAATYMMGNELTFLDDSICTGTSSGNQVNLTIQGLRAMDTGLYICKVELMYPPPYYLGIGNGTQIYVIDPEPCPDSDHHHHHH
- assay_details: SPR, antibody captured on anti-human Fc, CTLA-4.ECD-6×His as analyte, 1:1 fit
This listing pairs binders with measured Kd.
// note: answer is a bare numeric in nM

Examples with answers:
{"columns": ["binder", "measure", "unit_annotation", "recorded_result"],
 "data": [
  ["W3162_1.154.8-z35-uAb.IgG1K (antibody, V domains shown, Humanized; label says IgG1K) VH: QVQLVQSGAEVKKPGSSVKVSCKASGYTFTNYFMNWVRQAPGQGLEWMGRVDPEQGRADYAEKFKKRVTITADKSTSTAYMELSSLRSEDTAVYYCARRAMDNYGFAYWGQGTLVTVSS VL: EIVLTQSPDFQSVTPKEKVTITCSANSALSYMYWYQQKPDQSPKLWVHGTSNLASGVPSRFSGSGSGTDFTLTINSLEAEDAATYYCHHWSNTQWTFGGGTKVEIK", "Kd", "nM", 0.0968],
  ["W3162-1.154.8 xAb.IgG1 (antibody, V domains shown, Chimeric: rat variable regions fused with constant region of human antibody (label xAb.IgG1)) VH: EVQLQQSGPEAGRPGSSVKISCKASGYTFTNYFMNWVKQSPGQGLEWIGRVDPENGRADYAEKFKKKATLTADTTSNTAYIHLSSLTSEDTATYFCARRAMDNYGFAYWGQGTLVTVSS VL: EIMLTQSPTIMAASLGEKITITCSANSSLSYMYWFQQKSGASPKLWVHGTSNLASGVPDRFSGSGSGTSYYLTINTMEAEDAATYFCHHWSNTQWTFGGGTKLELK", "Kd", "nM", 0.068]
]}

Next, consider the following binder.
Note Kd for the binder shown: W3162-1.145.10 xAb.IgG1 (antibody, V domains shown, Chimeric: rat variable regions fused with constant region of human antibody (label xAb.IgG1)) VH: EVQLVESGGGLVQPGRSLKLSCAASDLTFSNYDMAWVRQTPTKGLEWVASISPNGGNTYYRDSVKGRFTVSRDNAKNSLYLQMDSLRSEDTATYYCARHLWFAYWGQGTLVTVSS VL: DIQMTQSPSSMSASLGDRVTISCQASQDIGSNLIWFQQKPGKSPRPMIYYATHLADGVPSRFSGSRSGSDYSLTISSLESEDVADYHCLQYKQYPRTFGGGTKLELK 2.08
